TGT: HCoV-HKU1 Mpro (Human coronavirus HKU1, UniProt P0C6X2)
Sequence (P0C6X2 3335-3637 limits assumed): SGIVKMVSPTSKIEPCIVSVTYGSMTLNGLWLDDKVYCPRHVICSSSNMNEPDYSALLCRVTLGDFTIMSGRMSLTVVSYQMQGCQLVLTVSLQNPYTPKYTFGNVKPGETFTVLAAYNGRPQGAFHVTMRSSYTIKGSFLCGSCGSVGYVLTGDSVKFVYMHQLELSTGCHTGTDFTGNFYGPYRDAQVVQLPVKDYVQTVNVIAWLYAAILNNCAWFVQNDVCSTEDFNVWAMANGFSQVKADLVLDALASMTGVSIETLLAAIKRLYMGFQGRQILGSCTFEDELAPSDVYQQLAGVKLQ
ASSAY_DETAILS: HCoV-HKU1 Mpro enzymatic inhibition assay (fluorescence)
Format: biochemical
pIC50: −log10 of the molar value.
Measured pIC50 of individual entries
MEASURE_NAME: pIC50

>>> observed_measurement("Cc1ccc2[nH]c(C(=O)N3C[C@H]4[C@@H]([C@H]3C(=O)N[C@H](C=O)C[C@@H]3CCNC3=O)C4(C)C)cc2c1")
7.62
>>> observed_measurement("CC1(C)[C@@H]2[C@@H](C(=O)N[C@H](C=O)C[C@@H]3CCNC3=O)N(C(=O)c3cc4cc(F)ccc4[nH]3)C[C@@H]21")
7.50
>>> observed_measurement("O=C[C@H](C[C@@H]1CCNC1=O)NC(=O)[C@@H]1C[C@@H](C2CCCCC2)CN1C(=O)c1cc2ccccc2[nH]1")
7.90
>>> observed_measurement("CC1(C)[C@@H]2[C@@H](C(=O)N[C@H](C#N)C[C@@H]3CCNC3=O)N(C(=O)c3cc4cccc(Cl)c4[nH]3)C[C@@H]21")
5.72
>>> observed_measurement("CC1(C)[C@@H]2[C@@H](C(=O)N[C@H](C#N)C[C@@H]3CCNC3=O)N(C(=O)C3(c4ccccc4)CCCC3)C[C@@H]21")
5.79
>>> observed_measurement("CC1(C)[C@@H]2[C@@H](C(=O)N[C@H](C=O)C[C@@H]3CCNC3=O)N(C(=O)c3cc4cc(S(C)(=O)=O)ccc4[nH]3)C[C@@H]21")
7.65
>>> observed_measurement("Cc1ccc2cc(C(=O)N3C[C@H]4[C@@H]([C@H]3C(=O)N[C@H](C=O)C[C@@H]3CCNC3=O)C4(C)C)[nH]c2c1C")
7.48
>>> observed_measurement("CC1(C)[C@@H]2[C@@H](C(=O)N[C@H](C=O)C[C@@H]3CCNC3=O)N(C(=O)C3(O)CCCCC3)C[C@@H]21")
6.75
>>> observed_measurement("CC1(C)[C@@H]2[C@@H](C(=O)N[C@H](C=O)C[C@@H]3CCNC3=O)N(C(=O)c3cc4cc5c(cc4[nH]3)OCO5)C[C@@H]21")
7.31
>>> observed_measurement("O=C[C@H](C[C@@H]1CCNC1=O)NC(=O)[C@@H]1CC(F)(F)CN1C(=O)c1cc2ccccc2[nH]1")
7.82
>>> observed_measurement("CC1(C)[C@@H]2[C@@H](C(=O)N[C@H](C#N)C[C@@H]3CCNC3=O)N(C(=O)C3(c4cccc(Cl)c4)CC3)C[C@@H]21")
6.73
>>> observed_measurement("CC1(C)[C@@H]2[C@@H](C(=O)N[C@H](C=O)C[C@@H]3CCNC3=O)N(C(=O)CN3CCCCCC3)C[C@@H]21")
7.26

* * *

TGT: HCoV-HKU1 Mpro (Human coronavirus HKU1, UniProt P0C6X2)
ASSAY_DETAILS: HCoV-HKU1 Mpro enzymatic inhibition assay (fluorescence)
Type: biochemical
Measured IC50 of individual entries
MEASURE_NAME: IC50

>>> observed_measurement("C[C@H](C(=O)N1C[C@H]2[C@@H]([C@H]1C(=O)N[C@H](C=O)C[C@@H]1CCNC1=O)C2(C)C)c1ccccc1")
"109 nM"
>>> observed_measurement("C[C@@H](C(=O)N1C[C@H]2[C@@H]([C@H]1C(=O)N[C@H](C=O)C[C@@H]1CCNC1=O)C2(C)C)c1ccccc1")
"36.4 nM"
>>> observed_measurement("COc1cccc2[nH]c(C(=O)N3C[C@H]4[C@@H]([C@H]3C(=O)N[C@H](C=O)C[C@@H]3CCNC3=O)C4(C)C)cc12")
"21.1 nM"
>>> observed_measurement("O=C[C@H](C[C@@H]1CCNC1=O)NC(=O)[C@@H]1CC2(CC2)CN1C(=O)c1cc2cccc(Cl)c2[nH]1")
"10.4 nM"
>>> observed_measurement("COc1ccc(F)c2[nH]c(C(=O)N3C[C@H]4[C@@H]([C@H]3C(=O)N[C@H](C=O)C[C@@H]3CCNC3=O)C4(C)C)cc12")
"35.7 nM"
>>> observed_measurement("O=C[C@H](C[C@@H]1CCNC1=O)NC(=O)[C@@H]1CC2(CC2)CN1C(=O)c1cc2c(F)cccc2[nH]1")
"9.95 nM"
